# Lookup of reported Inhibition keyed by entry
System: Cricetinae gen. sp.
Experiment: Compound was evaluated in vivo for inhibition of HLE-induced hemorrhage in hamster lung at 100 microg 30 min after administration
Type: functional, Cricetulus griseus
property_label: Inhibition (%)

INSERT INTO measurements (chemical_string, readout_units, endpoint_value) VALUES
  ('CO[C@H]1C(=O)N2C(C(=O)N(C)CC(=O)O)=C(COC(C)=O)CS(=O)(=O)[C@H]12', '%', 90),
  ('CO[C@H]1C(=O)N2C(C(=O)OC(C)(C)C)=C(CSc3nc(=O)c(=O)[nH]n3C)CS(=O)(=O)[C@H]12', '%', 90),
  ('CC[C@H]1C(=O)N2C(C(=O)OCc3ccc(C(=O)O)cc3)=C(COC(C)=O)CS(=O)(=O)[C@H]12', '%', -32),
  ('CO[C@H]1C(=O)N2C(C(=O)OC(C)(C)C)=C(CSc3nnnn3CC(=O)O)CS(=O)(=O)[C@H]12', '%', 89);

====

Molecular target: Neutrophil elastase (Homo sapiens)
Sequence (P08246 whole entry): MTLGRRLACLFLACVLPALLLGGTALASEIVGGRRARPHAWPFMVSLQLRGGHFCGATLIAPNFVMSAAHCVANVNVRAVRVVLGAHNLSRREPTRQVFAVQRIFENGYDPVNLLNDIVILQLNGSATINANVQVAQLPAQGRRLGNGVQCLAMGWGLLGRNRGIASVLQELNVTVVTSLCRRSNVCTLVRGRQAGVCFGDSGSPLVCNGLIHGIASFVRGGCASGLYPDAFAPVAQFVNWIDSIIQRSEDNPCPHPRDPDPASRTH
Test: Inhibitory activity against HLE at 10 min (48 mM conc)
pKi: −log10 of the molar value.
property_label: pKi

INSERT INTO results (chemical_string, property_label, endpoint_value) VALUES
  ('CO[C@H]1C(=O)N2C(C(=O)N3CCC[C@H]3C(=O)O)=C(COC(C)=O)CS(=O)(=O)[C@H]12', 'pKi', 5.77);

====

Test system: Cricetinae gen. sp.
Assay: Compound was evaluated in vivo for inhibition of HLE-induced hemorrhage in hamster lung at 200 microg, 3h after administration prior to HLE
Format: functional, Cricetulus griseus
property_label: Inhibition (%)

INSERT INTO results (compound, property_label, endpoint_value) VALUES
  ('CC[C@H]1C(=O)N2C(C(=O)N(C)CC(=O)O)=C(COC(=O)c3ccc(C(=O)O)cc3)CS(=O)(=O)[C@H]12', 'Inhibition', 57),
  ('CO[C@H]1C(=O)N2C(C(=O)N(C)[C@@H](C)C(=O)O)=C(COC(C)=O)CS(=O)(=O)[C@H]12', 'Inhibition', 47),
  ('CO[C@H]1C(=O)N2C(C(=O)N3CC(O)CC3C(=O)O)=C(COC(C)=O)CS(=O)(=O)[C@H]12 (stereo not given in full)', 'Inhibition', 4),
  ('CO[C@H]1C(=O)N2C(C(=O)N(C)CC(=O)OC(C)(C)C)=C(CSc3nc(=O)c(=O)[nH]n3C)CS(=O)(=O)[C@H]12', 'Inhibition', 38),
  ('CO[C@H]1C(=O)N2C(C(=O)N(C)CC(=O)O)=C(COC(=O)c3ccccc3)CS(=O)(=O)[C@H]12', 'Inhibition', 38);

====

Tested on: Cricetinae gen. sp.
Assay: Compound was evaluated in vivo for inhibition of HLE-induced hemorrhage in hamster lung at 10 ug 30 min after administration prior to HLE
Type: functional, Cricetulus griseus
Consider the cut-off 40%. If the recorded Inhibition is strictly smaller, the label is 1; if not, the label is -1.

INSERT INTO assay_data (molecule, target_system, class_assignment) VALUES
  ('CO[C@H]1C(=O)N2C(C(=O)N(C)CC(=O)O)=C(CSc3nc(=O)c(=O)[nH]n3C)CS(=O)(=O)[C@H]12', 'Cricetinae gen. sp.', -1),
  ('CO[C@H]1C(=O)N2C(C(=O)N(C)CC(=O)OC(C)(C)C)=C(CSc3nc(=O)c(=O)[nH]n3C)CS(=O)(=O)[C@H]12', 'Cricetinae gen. sp.', -1),
  ('CO[C@H]1C(=O)N2C(C(=O)N3CCCC3C(=O)O)=C(CSc3nc(=O)c(=O)[nH]n3C)CS(=O)(=O)[C@H]12 (stereo partly specified)', 'Cricetinae gen. sp.', -1),
  ('CO[C@H]1C(=O)N2C(C(=O)N(C)CCC(=O)O)=C(CSc3nc(=O)c(=O)[nH]n3C)CS(=O)(=O)[C@H]12', 'Cricetinae gen. sp.', -1),
  ('CO[C@H]1C(=O)N2C(C(=O)N3CCCC3)=C(CSc3nc(=O)c(=O)[nH]n3C)CS(=O)(=O)[C@H]12', 'Cricetinae gen. sp.', 1),
  ('CO[C@H]1C(=O)N2C(C(=O)N(C)CC(=O)OC(C)(C)C)=C(CSc3nnnn3CC(=O)O)CS(=O)(=O)[C@H]12', 'Cricetinae gen. sp.', 1);
